Reference for the values: patent US20240317746A1

- run_description: Preliminary solubility test: estimated solubility at RT by visual observation
- Assay type: physicochemical
- condition_set: water, thermodynamic from solid, EtOH, IPA, Acetone, EtOAc, ACN, Water, DCM, 2-MeTHF, Toluene, MTBE, MEK, Heptane, read-out: Solubility
measured_endpoint: solubility

Query :: May I ask what solubility has been recorded for C[C@@H]1[C@@H](Oc2ccc(C(=O)NC3CC3)nc2)CN1Cc1cnc2cc(Cl)c(=O)[nH]c2c1 [Compound 1] ?
Result :: < 1000 µg/mL

----------
- run_description: pH solubility profile of Form I in pH buffers
- Type: physicochemical
- condition_set: aqueous buffer, thermodynamic from solid; pH 9.0 buffer (25 mM DEA), initial pH 9.01, solid loading 5 mg/mL, 25° C.
measured_endpoint: solubility at 24 h (µg/mL)
Give your result in µg/mL as a bare value.

Query :: May I ask what solubility at 24 h has been recorded for C[C@@H]1[C@@H](Oc2ccc(C(=O)NC3CC3)nc2)CN1Cc1cnc2cc(Cl)c(=O)[nH]c2c1 [Freebase Form I] ?
Result :: 14
